- System: biotinyl-Val-oxazolone
- method: self-aminoacylation, catalytic enhancement (BVO) (fold over background); higher = more active; k-Seq, kA / k0A0; sequences stand for … in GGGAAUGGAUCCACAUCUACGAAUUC…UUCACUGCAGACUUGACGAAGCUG
Variants at the floor of the assay were thinned out.
Returns Met if the recorded self-aminoacylation is greater than or equal to 3, and Not met otherwise.

IN: Check the entry CUACUUCAAACAAUCGCGCUG [Fam1A.1 aminoacylation ribozyme variant] : does self-aminoacylation equal or exceed 3?
OUT: Not met

IN: Same lookup for AGUACCCUGGGCAUCGAGUGA [Fam2.1 aminoacylation ribozyme variant] , please.
OUT: Met

IN: Request: GUUCACCUAGGUCAUCCGGUG [Fam2.2 aminoacylation ribozyme variant]
OUT: Met

IN: Cool, now AUUCACCUGUGUCAUCGGGUG [Fam2.2 aminoacylation ribozyme variant]
OUT: Met

IN: Consider next the sequence CUAUUUAAAACAAUCGGUCUG [Fam1A.1 aminoacylation ribozyme variant] in the same way.
OUT: Not met

IN: Entry AUUACCCGGGUCAUCGAGUGG [Fam2.1 aminoacylation ribozyme variant] please
OUT: Not met

IN: Please give the result for AAAUUUGCUAAUAGUCGCAUG [Fam3.1 aminoacylation ribozyme variant] too.
OUT: Not met

IN: What do we get for CCACACUUCAAGUAAUCGGGC [Fam1B.1 aminoacylation ribozyme variant] ?
OUT: Not met

IN: What do you have for AAUACCCUGGUCAUCGAAUGA [Fam2.1 aminoacylation ribozyme variant] ?
OUT: Not met

IN: # repeat for AUUCACCUAGGUUAGCGGGUG [Fam2.2 aminoacylation ribozyme variant]
OUT: Not met

IN: Another sequence to look at: CCACGCUUAAAGCAAUCGGUC [Fam1B.1 aminoacylation ribozyme variant]
OUT: Not met

IN: Subsequent entry: CUACUUGAAACGAUCGGUCUG [Fam1A.1 aminoacylation ribozyme variant]
OUT: Not met

IN: And what about the sequence AUUCACCCAGGUCAUCGCGUG [Fam2.2 aminoacylation ribozyme variant] ?
OUT: Met

IN: Subsequent entry: AUCCAACUAGGUCAUCGGGUG [Fam2.2 aminoacylation ribozyme variant]
OUT: Met

IN: Request: AAGUUUGCUAAUAGUAGCAAU [Fam3.1 aminoacylation ribozyme variant]
OUT: Not met

IN: Also check CUACUUCAAACAAUCGCUAUG [Fam1A.1 aminoacylation ribozyme variant]
OUT: Not met

IN: How about CUACGUCAAACAAUGGGUCUG [Fam1A.1 aminoacylation ribozyme variant] ?
OUT: Not met

IN: // repeat for AUGUUUGAUAAUAGUCGCAAG [Fam3.1 aminoacylation ribozyme variant] and report
OUT: Not met

IN: Do the same for CCACACUUCAAGCAACCGGUG [Fam1B.1 aminoacylation ribozyme variant] please
OUT: Met

IN: Entry to check: AAGUUUGCCACUAGUCGCAAG [Fam3.1 aminoacylation ribozyme variant]
OUT: Not met

IN: Please do the same for CCACACUUGAAGCAAUAGGUC [Fam1B.1 aminoacylation ribozyme variant] as well.
OUT: Not met

IN: Follow-up entry: AACUUUGCUAAGAGUCGCAAG [Fam3.1 aminoacylation ribozyme variant]
OUT: Not met

IN: Try AACUUUGCUAAUAGUCGCAAU [Fam3.1 aminoacylation ribozyme variant] next.
OUT: Not met

IN: What do you have for AUUCACAAAGGUCAUCGGGUG [Fam2.2 aminoacylation ribozyme variant] ?
OUT: Met

IN: Try the sequence AAGUUUGCUGAUAGUCACAAG [Fam3.1 aminoacylation ribozyme variant]
OUT: Not met

IN: Request: AUUACCCUGGUCAUGUAGUGA [Fam2.1 aminoacylation ribozyme variant]
OUT: Not met

IN: Would you mind doing AAGUUUGCUAAUAGUCGCGAG [Fam3.1 aminoacylation ribozyme variant] as well?
OUT: Not met

IN: Query CUACUUCUAACAAUCGGACUG [Fam1A.1 aminoacylation ribozyme variant] next
OUT: Not met

IN: Entry to check: AUUAACCUAGGUCAUCGGGAG [Fam2.2 aminoacylation ribozyme variant]
OUT: Not met

IN: Moving on to the next sequence: AUGACCCUGGUCCUCGAGUGA [Fam2.1 aminoacylation ribozyme variant]
OUT: Not met

IN: Could you do the same for CUACUUCUAACAAUCGGUCUG [Fam1A.1 aminoacylation ribozyme variant] , please?
OUT: Not met

IN: Please answer likewise for AUCCACCUAGGUCAACGGGUG [Fam2.2 aminoacylation ribozyme variant]
OUT: Met

IN: Next sequence: GUUCACCUAGGUCAUCGGGUU [Fam2.2 aminoacylation ribozyme variant]
OUT: Met

---

- Tested on: biotinyl-Trp-oxazolone
- method: self-aminoacylation, catalytic enhancement (BWO) (fold over background); higher = more active; k-Seq, kA / k0A0; sequences stand for … in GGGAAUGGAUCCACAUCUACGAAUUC…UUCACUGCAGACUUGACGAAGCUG
Fewer inactive variants are shown than the library holds.
Where self-aminoacylation equals or exceeds 4, the correct label is Yes; where it does not, the label is No.

IN: Given the entry CCUCACUUCAAGCAAUCGGUG [Fam1B.1 aminoacylation ribozyme variant] , answer whether its self-aminoacylation meets or surpasses 4.
OUT: Yes

IN: Query CCACACUUCAAGCAAUCGGGG [Fam1B.1 aminoacylation ribozyme variant] next
OUT: No

IN: // next record AUUACCCUCGUCAUCGAGUGU [Fam2.1 aminoacylation ribozyme variant]
OUT: No

IN: Thanks! And AUUCACCUAGGUCAUCGGGCC [Fam2.2 aminoacylation ribozyme variant] ?
OUT: Yes

IN: Same question, AACUUUGCUAAUAGUAGCAAG [Fam3.1 aminoacylation ribozyme variant] this time
OUT: No

IN: AUUCGUCUAGGUCAUCGGGUG [Fam2.2 aminoacylation ribozyme variant] , same question.
OUT: Yes

IN: Another sequence to check: CCACACUUCCGGCAAUCGGUC [Fam1B.1 aminoacylation ribozyme variant]
OUT: No

IN: CCAAACUUCAAGCAAUCGUUC [Fam1B.1 aminoacylation ribozyme variant] , same question.
OUT: No

IN: Check AUUACCGUGGUCUUCGAGUGA [Fam2.1 aminoacylation ribozyme variant] too.
OUT: Yes

---

- Tested on: biotinyl-Phe-oxazolone
- method: self-aminoacylation, catalytic enhancement (BFO) (fold over background); higher = more active; k-Seq, kA / k0A0; sequences stand for … in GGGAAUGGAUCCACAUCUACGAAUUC…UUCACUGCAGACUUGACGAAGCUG
This sample holds only a part of the variants without activity.
observable: self-aminoacylation
Reply briefly: the number, and no unit.

IN: Query self-aminoacylation on biotinyl-Phe-oxazolone for AAUCAUCUAGGUCAUCGGGUG [Fam2.2 aminoacylation ribozyme variant]
OUT: 41.3

IN: Same question, CCACACGUCAAGCAAUCGGUG [Fam1B.1 aminoacylation ribozyme variant] this time
OUT: 9.7

IN: How about CCACAAUUCAAGCAUUCGGUC [Fam1B.1 aminoacylation ribozyme variant] ?
OUT: 1.36

IN: Follow-up entry: AUUACCCUGGUCAUCAUGUGA [Fam2.1 aminoacylation ribozyme variant]
OUT: 26.2

IN: Can you check CAACACGUCAAGCAAUCGGUC [Fam1B.1 aminoacylation ribozyme variant] next?
OUT: 1.33

IN: Same thing, different sequence: CCACGCUACAAGCAAUCGGUC [Fam1B.1 aminoacylation ribozyme variant]
OUT: 1.3

IN: Field entry: GUUAUCCUGGUCAUCGAGUGA [Fam2.1 aminoacylation ribozyme variant]
OUT: 16.1

IN: Same question, AUUACACUGGUCAGCGAGUGA [Fam2.1 aminoacylation ribozyme variant] this time
OUT: 16.9

IN: Another sequence: AAGUUUGCUAAUAGUCGCAGU [Fam3.1 aminoacylation ribozyme variant]
OUT: 8.27

IN: Same again, this time with ACUCACCCAGGUCAUCGGGUG [Fam2.2 aminoacylation ribozyme variant]
OUT: 26.2

IN: Can you handle AUUACCCUUGUCAUCGAGUGU [Fam2.1 aminoacylation ribozyme variant] next?
OUT: 8.43

IN: Same again, this time with CCACGCUUCAAGCGAUCGGUC [Fam1B.1 aminoacylation ribozyme variant]
OUT: 2.6

IN: Also AUACACCUCGGUCAUCGGGUG [Fam2.2 aminoacylation ribozyme variant] ?
OUT: 23.3

IN: Also need CCACACUUGAAGGAAUCGGUC [Fam1B.1 aminoacylation ribozyme variant] , thanks.
OUT: 1.23

IN: Try this sequence next: AUUCACCUUGGUCAUCGGUUG [Fam2.2 aminoacylation ribozyme variant]
OUT: 0.347

IN: What about this sequence? CCACGCUUCAGGCAAUCGGUC [Fam1B.1 aminoacylation ribozyme variant]
OUT: 1.41

IN: How about AUUAUCCUGGUCAUCCAGUGA [Fam2.1 aminoacylation ribozyme variant] ?
OUT: 11.1

IN: Try this sequence too: AUUCACCUAGGUCAGCGUGUG [Fam2.2 aminoacylation ribozyme variant]
OUT: 11
